# Tested on: SNB-19 CNS
# method description: NCI tumour cell line growth inhibition, 48 h
metric name: TGI

Past entries and their recorded results:
O=C1Nc2ccccc2/C1=C/c1cn(C(=O)c2c(Cl)cccc2Cl)c2ccccc12 ... > 100 µM
COc1ccc(N2CCN(Cc3c(C(C)=O)[n+](=O)c4ccccc4n3[O-])CC2)cc1 ... > 100 µM
CC(=O)N1CC[N+](C)(CCCCN2c3ccccc3Sc3cc(N=[N+]=[N-])ccc32)CC1 ... > 100 µM

Here "c1ccc(SC(Sc2ccccc2)c2ccc3c(c2)OCO3)cc1" was tested on SNB-19 CNS, and its TGI came to > 100 µM

// returns TGI for "CCCN1CN(c2ccccc2)C2(CCN(CCCC(=O)c3ccc(F)cc3)CC2)C1=O" with SNB-19 CNS; value = 34.7 µM

SNB-19 CNS assay, compound "O=C(Nc1ccc([N+](=O)[O-])cc1C(=O)O)c1ccc([N+](=O)[O-])cc1" , recorded TGI = > 100 µM

----------
# maps each entry to its TGI
# Test system: IGROV1 ovarian
# method description: NCI tumour cell line growth inhibition, 48 h

Some compounds with recorded TGI:
O=C(O)c1cncc(C(=O)O)c1 ... > 100 µM
O=C1OC2c3ccccc3C(=O)C2(c2ccccc2)N1c1ccccc1 (stereo unspecified) ... > 200 µM
O=C(NCC(=O)N1CC[C@H](NC2CCC(O)(c3ccc(-c4ncccn4)cn3)CC2)C1)c1cccc(C(F)(F)F)c1 (stereo partly specified) ... > 100 µM
CNC(=O)c1n[nH]n(Cc2ccccc2)c1=S ... > 100 µM
O=C(Nc1cccc([N+](=O)[O-])c1)c1ccc2ccccc2c1O ... 46 µM
Cc1nc(N)sc1N=Nc1cc(Cl)c([N+](=O)[O-])cc1Cl ... 47.2 µM

Summary for this compound, "CC1(C)O[C@H]2[C@@H]3N=C(c4ccccc4)O[C@@H]3C=C[C@H]2O1" : TGI is > 100 µM

The compound identified as "O=C1/C(=C/c2ccc([N+](=O)[O-])o2)Oc2ccccc21" registered its TGI at 3.62 µM

Measured TGI of "O=Cc1[nH]c(=O)[nH]c(=O)c1CCl" : > 100 µM

TGI reading for "N#CCCN(CCC#N)c1ccc(/C=N\c2nc(-c3ccccc3)cs2)cc1" : > 100 µM

Form: compound = "Cc1cc(N(CCC#N)CCC#N)ccc1/C(N=Nc1ccccc1)=N\NC(=O)c1ccccc1" ; TGI = > 100 µM

----------
# Test system: NCI-H226 lung
# method description: NCI tumour cell line growth inhibition, 48 h
Entries and their TGI values follow.
Numeric answer only, unit µM assumed.

# count of solved cases: 3
CC(C)/C(Cl)=N\OC(=O)Nc1ccc(F)c([N+](=O)[O-])c1 ... 50.1
COc1ccc(NC(=O)COC(=O)c2cccc3c(=O)c4ccccc4[nH]c23)cc1 ... 44.6
CC(C)C(Sc1nc(-c2ccccc2)c(-c2ccccc2)[nH]1)C(=O)N/N=C/c1ccc([N+](=O)[O-])cc1 (stereo not given) ... 40.3

The recorded TGI with NCI-H226 lung for "CCC[CH2][Sn]1([CH2]CCC)[O]C(=O)c2cccc(OC)c2[O]1" was 3.04

// TGI (NCI-H226 lung) for "Cc1ccc(/C=C/C(=O)c2ccc(N)cc2)c(C)c1" = 7.25

----------
# System: CCRF-CEM leukemia
# method description: NCI tumour cell line growth inhibition, 48 h; in the data active = GI50 below about 0.43 µM; inactive = the rest
Allowed answers: 1 for active, 0 for inactive

O=C(N1CCC(CN=c2cc3n(-c4ccc(Cl)cc4)c4ccccc4nc-3cc2Nc2ccc(Cl)cc2)CC1)N1CC1 ... 1
COc1cc(C2CC(c3ccc(Nc4ccnc5cc(Cl)ccc45)cc3)=NN2C=O)cc(OC)c1OC (configuration not stated) ... 0

Attention now turns to another entry.
Data request: # fetch the recorded call for "CCCCCCCCCCCCSC(=NC)NC" here
Data returned: 0

----------
In this section we review reported TGI values for a set of molecules.
# System: PC-3 prostate
# method description: NCI tumour cell line growth inhibition, 48 h

Use these answered entries as a reference point.
COc1cc(/C=C/c2sc3ccccc3[n+]2C)ccc1N(C)C ... 32.3 µM
O=C(CC(O)c1ccncc1)c1ccccc1 (stereo not given) ... > 100 µM
COC(=O)c1cc(-c2ccc(-c3ccc(O)cc3)cc2)cc(-c2ccc(-c3ccc(O)cc3)cc2)c1 ... 31 µM
Cn1c(=O)c2[nH]c(C3CC(=O)CC(c4nc5c([nH]4)c(=O)n(C)c(=O)n5C)N3)nc2n(C)c1=O (stereo not given) ... > 100 µM
COP(=O)(OC)C(O)/C=C/c1ccco1 (stereo not given) ... > 100 µM

The reported value for O=C(NCC(=O)N1CC[C@H](NC2CCC(O)(c3ccc(-c4ncccn4)cn3)CC2)C1)c1cccc(C(F)(F)F)c1 (stereo not given in full) in terms of TGI is > 100 µM

response.value for Cc1ccc(S(=O)C[C@@]2(C(F)F)NC(=O)NC2=O)cc1 (stereo not given in full) (field: TGI) = > 100 µM

Input O/N=C1/CCCCCC1NO (stereo not given) . Output TGI: > 100 µM

# molecule O=C1/C(=C/c2ccc(Cl)cc2)N=C(c2ccccc2)N1C1Nc2cc3c(cc2S1)NC(N1C(=O)/C(=C/c2ccc(Cl)cc2)N=C1c1ccccc1)S3 (stereo not given) ; its TGI = > 100 µM

Looking up "c1cc2cc(c1)CN1CCNCCN(CCNCC1)Cc1cccc(c1)CN1CCNCCN(CCNCC1)C2" , I found its TGI recorded as > 100 µM

----------
# Test system: SK-MEL-28 melanoma
# method description: NCI tumour cell line growth inhibition, 48 h
Measured TGI, listed per entry.
Reply with just the number (in µM).

Please review the entries below; each comes with its answer.
Cc1nc(N)sc1N=Nc1cc(Cl)c([N+](=O)[O-])cc1Cl ... 33.9
CCN(CC)CCCNc1nc2ccccc2c2c(=O)c3cc(Cl)ccc3sc12 ... 3.34
Cc1cc(NS(=O)(=O)c2ccc(NC(=O)c3cccc4cc5ccccc5nc34)cc2)no1 ... 33.1
O=C1N(CN2CCOCC2)CN(CN2CCOCC2)C(=O)N1Cc1ccccc1 ... 34.8
O=C(Nc1ccc(Cl)cc1)c1ccc([N+](=O)[O-])o1 ... 3.79

Record "CN(C)CC(C)(C)C(/C=C/c1ccccc1)=N\Nc1ccccc1" , field TGI: 10.8

The compound identified as "O=C1Nc2ccccc2/C1=C/c1ccccc1" registered its TGI at 44.4

----------
# Tested on: HT29 colon
# method description: NCI tumour cell line growth inhibition, 48 h
metric name: TGI

CC1(C)O[C@H]2[C@@H]3N=C(c4ccccc4)O[C@@H]3C=C[C@H]2O1 ... > 100 µM

"COc1ccc(/C=C(\C(=O)OCC(C)C)c2ccc(OC)c(OC)c2)cc1OC" has a reported TGI of > 100 µM

For COc1ccc(CC2NCCc3cc(OC)c(OC)cc32)cc1 (stereo not given) the compound record lists TGI as > 100 µM

----------
# Test system: HS 578T breast
# method description: NCI tumour cell line growth inhibition, 48 h
metric name: TGI

O=C1C=CC[C@H](/C=C/C[C@@H](O)C[C@H](O)/C=C/c2ccccc2)O1 ... 60.2 µM
c1cc2cc(c1)CN1CCNCCN(CCNCC1)Cc1cccc(c1)CN1CCNCCN(CCNCC1)C2 ... > 100 µM
CC(C)c1ccc2c(c1)C=C1OC(=O)[C@]3(C)CCC[C@@]2(C)C13 (stereo not given in full) ... > 100 µM

Notebook: "CC(=O)Nc1ccc2c(c1)C(=O)c1cccc(F)c1-2" , TGI read as > 100 µM

Lab book: TGI of "COc1cc2c(cc1OCCCCCn1c(-c3ccco3)nc3ccccc31)N=C[C@@H]1CCCN1C2=O" noted as < 0.0349 µM

----------
# System: SK-MEL-5 melanoma
# method description: NCI tumour cell line growth inhibition, 48 h; in the data active = GI50 below about 0.43 µM; inactive = the rest
Parameter call: string, one of t (active), f (inactive)

COc1cc(OC)c2cc(C(=O)O)c(=O)oc2c1 ... f
N#Cc1c(NC(=O)c2cccc3ccccc23)sc2c1CCCC2 ... t
CC1CC(C)/C(=N/NC(N)=O)C(C(O)CC2CCC(=O)NC2=O)C1 (stereo not given) ... f
COc1cc2c3c(n(CCCCNC(=O)OCC4c5ccccc5-c5ccccc54)c(=O)c2cc1OC)-c1cc2c(cc1C3=O)OCO2 ... f
CS(=O)(=O)Nc1cccc(-c2ccc3c(NC(=O)C4CC4)n[nH]c3c2)c1 ... f
CC(=O)c1c(O)ccc2c(C)c(C(=O)O)oc12 ... f

Data request: Kindly provide the recorded test outcome for the following molecule: "C=C(C)[C@@H]1CC[C@]2(C(=O)O)CC[C@]3(C)[C@H](CC[C@@H]4[C@@]5(C)C[C@@H](CC#Cc6ccc(Br)cc6)C(=O)C(C)(C)[C@@H]5CC[C@]43C)[C@@H]12"
Data returned: f

Data request: Any idea what this test logged for COc1cc(C2CC(c3ccc(Nc4ccnc5cc(Cl)ccc45)cc3)=NN2C=O)cc(OC)c1OC (stereo not given) ?
Data returned: f

Data request: Hello, I am checking results. What call was entered for "COc1cc(Nc2ncc3c(C)nc(-c4cccc(Oc5ccccc5)c4)n3n2)cc(OC)c1OC" ?
Data returned: f

Data request: Please let me know the test result on file for "COc1cc(-n2cc(-c3ccc(F)cc3)[nH]c2=S)cc(OC)c1OC" .
Data returned: f
